tested on: COLO 205; assay: NCI tumour cell line growth inhibition, 48 h
Activity calls are given as the source filed them. Rule as the data show it: active = GI50 up to about 1.1 µM and inactive = higher.
Can you answer with just one of these options? t (active), f (inactive)

Would you mind telling me which call this test gave COc1cc2cccc(/N=C\c3cccc(OC)c3OC(C)C)c2cc1OC ?
f

Would you mind telling me which call this test gave CCOC(=O)n1c2ccccc2c2c(O)c(OC)c3c(c21)C(=O)NC3=O ?
f

Would you mind telling me which call this test gave O=C(Nc1c(Cl)cccc1Cl)c1c(Cl)c(Cl)c(Cl)c(Cl)c1-c1nc2ccccc2[nH]1 ?
f

Would you mind telling me which call this test gave CCC1CCC2c3c([nH]c4ccc(C)cc34)C3C(=O)N(N(C)C)C(=O)C3C2C1 (stereo not given) ?
f

Would you mind telling me which call this test gave CC(=O)O[C@H]1CN(S(=O)(=O)c2ccc(C)cc2)C[C@@H]1C1CCCCC1 ?
f

Would you mind telling me which call this test gave CC[C@@]1(O)C(=O)OCc2c1cc1n(c2=O)Cc2c-1nc1ccccc1c2Cl ?
t

Would you mind telling me which call this test gave N#CCc1nc(-c2cc3ccccc3oc2=O)cs1 ?
f

Would you mind telling me which call this test gave N#Cc1cnn2ccn(C3OC(COC(=O)c4ccccc4)C(OC(=O)c4ccccc4)C3OC(=O)c3ccccc3)c12 (stereo not given) ?
f

Would you mind telling me which call this test gave CCN1CCC(O)(c2ccc([N+](=O)[O-])cc2)C(C(=O)c2ccc([N+](=O)[O-])cc2)C1 (stereo not given) ?
f

Would you mind telling me which call this test gave COc1ccc(-c2c3ccccc3c(-c3ccc(OC)cc3)c3ccccc23)cc1 ?
f

* * *

test system: SK-OV-3; assay: NCI tumour cell line growth inhibition, 48 h
The source made the active and inactive calls. Cut-off read from the data, not from the text of the source: active = GI50 up to about 1.1 µM and inactive = higher. Where a SMILES comes first, the peptide text is derived from it. The star is where a group is joined. X33 = O=C(c1ccc(-c2ccc(Cl)cc2Cl)o1)*
Can you answer with just one of these options? True = active, False = inactive

Would you mind telling me which call this test gave N/C(=N\N=C\c1cc2ccccc2s1)c1cnccn1 ?
False

Would you mind telling me which call this test gave Brc1ccc(/N=N/c2ccc3ccccc3n2)cc1 ?
False

Would you mind telling me which call this test gave CCc1ccccc1NC(=O)c1cccc([N+](=O)[O-])c1O ?
False

Would you mind telling me which call this test gave Cc1ccc(S(=O)(=O)Nc2cccc(C)c2C)cc1 ?
False

Would you mind telling me which call this test gave Cc1noc2c1C(=O)CCC2 ?
False

Would you mind telling me which call this test gave Oc1cc(-n2cccn2)c(O)cc1-n1cccn1 ?
False

Would you mind telling me which call this test gave O=C1C2=C(N[C@@H](c3ccccc3)[C@H](c3ccccc3)N2)C(=O)c2ccccc21 ?
False

Would you mind telling me which call this test gave COc1cc2c(cc1NC(=O)c1ccccc1)c1c(n2S(=O)(=O)c2ccccc2)CCN(S(=O)(=O)c2ccccc2)C1 ?
False

Would you mind telling me which call this test gave C=CCCC(OCOCCOC)c1cc(C)c(O[Si](C)(C)C(C)(C)C)c(C)c1 (stereo unspecified) ?
False

Would you mind telling me which call this test gave CC(=O)O[C@H]1CN(S(=O)(=O)c2ccc(C)cc2)C[C@@H]1C1CCCCC1 ?
False

Would you mind telling me which call this test gave O=C(Nc1ccc(Cl)cc1Cl)c1c/c(=N\O)c2ccc(O)cc2o1 ?
False

Would you mind telling me which call this test gave COc1ccc(C2C(C(=O)O)=C(CO)Oc3cc4c(cc32)OCO4)c(OC)c1 (stereo unspecified) ?
False

Would you mind telling me which call this test gave Nn1nnc2ccccc21 ?
False

Would you mind telling me which call this test gave Cc1cc(C)c(C#N)c(SC(=S)NC(=O)c2ccc(Cl)cc2)n1 ?
False

Would you mind telling me which call this test gave COc1ccc(CC2C(=O)NC(C)C(=O)N(C)C3C(=O)N(C)C(Cc4ccc(O)c(c4)Oc4ccc(cc4)C3O)C(=O)NC(C)C(=O)NC(C)C(=O)N2C)cc1 (stereo unspecified) ?
True

Would you mind telling me which call this test gave CCC(C)C(NC(=O)CNC(=O)C(Cc1ccccc1)NC(=O)C1CCCN1C(=O)c1ccc(-c2ccc(Cl)cc2Cl)o1)C(=O)OC (stereo unspecified) (X33-PFGI-OMe; configuration not given here) ?
False

Would you mind telling me which call this test gave COc1cc([N+](=O)[O-])c(S(=O)(=O)O)cc1N ?
False

Would you mind telling me which call this test gave CCOC(=O)C1CC(C(=O)c2ccccc2)N2c3ccccc3-c3ccccc3C12 (stereo unspecified) ?
False

Would you mind telling me which call this test gave N#Cc1nc(-c2ccccc2C(=O)O)oc1N ?
False

Would you mind telling me which call this test gave Cc1nccn1S(=O)(=O)c1ccc(Cl)cc1 ?
False

Would you mind telling me which call this test gave CN(C)c1ccc(C=C2C(=O)NC(=S)NC2=O)c2ccccc12 ?
False

* * *

system: ACHN; assay: NCI tumour cell line growth inhibition, 48 h
Activity calls are given as the source filed them. Cut-off read from the data, not from the text of the source: active = GI50 up to about 1.1 µM and inactive = higher. Square brackets hold non-standard residues; d marks the D form. Peptide text beside a SMILES is read from it.
Can you answer with just one of these options? yes (1) (active), no (0) (inactive)

Would you mind telling me which call this test gave C1=CC=C2NCCSCC/N=C3/C=CC=CC=C3NCCSCC/N=C\2C=C1 ?
no (0)

Would you mind telling me which call this test gave COC(=O)CCCC(=O)/C(=N\Nc1ccc(Cl)cc1)Nc1c(Cl)cccc1Cl ?
no (0)

Would you mind telling me which call this test gave N/C(=N\N=C\c1cc2ccccc2s1)c1cnccn1 ?
no (0)

Would you mind telling me which call this test gave O=C(c1ccccc1)C1OC12C(=O)Nc1c(Cl)cc(Cl)cc12 (stereo not drawn) ?
no (0)

Would you mind telling me which call this test gave NC(=S)N/N=C(/CCN1CCCC1)CC(C1=C(O)C2=CCCCC2OC1=O)c1ccccc1 (stereo not drawn) ?
no (0)

Would you mind telling me which call this test gave Cc1c(N)nc(C(CC(N)=O)NCC(N)C(N)=O)nc1C(=O)NC(C(=O)NC(C)C(O)C(C)C(=O)NC(C(=O)NCCc1nc(-c2nc(C(=O)NCCCNCCCCN)cs2)cs1)C(C)O)C(OC1OC(CO)C(O)C(O)C1OC1OC(CO)C(O)C(OC(N)=O)C1O)c1c[nH]cn1 (stereo not drawn) ?
yes (1)

Would you mind telling me which call this test gave Cc1ccccc1N/C(=C(/C(Cl)=C(Cl)Cl)[N+](=O)[O-])n1nnc2ccccc21 ?
no (0)

Would you mind telling me which call this test gave CC(=O)O[C@H]1CN(S(=O)(=O)c2ccc(C)cc2)C[C@@H]1C1CCCCC1 ?
no (0)

Would you mind telling me which call this test gave COc1ccc2nc(/C(N)=C\C#N)ccc2c1 ?
no (0)

Would you mind telling me which call this test gave O=[N+]([O-])c1c(Br)cc(Br)c2c1Nc1c(ccc(Cl)c1Cl)S2 ?
no (0)

Would you mind telling me which call this test gave COc1ccc(CC2C(=O)NC(C)C(=O)N(C)C3C(=O)N(C)C(Cc4ccc(O)c(c4)Oc4ccc(cc4)C3O)C(=O)NC(C)C(=O)NC(C)C(=O)N2C)cc1 (stereo not drawn) ?
yes (1)

Would you mind telling me which call this test gave CC1OC(n2cc(F)c(=O)[nH]c2=O)C=CC1O (stereo not drawn) ?
no (0)

Would you mind telling me which call this test gave C1CCC(CC2CCC(NC3=NCCO3)CC2)CC1 (stereo not drawn) ?
no (0)

Would you mind telling me which call this test gave N=C(N)NCCC[C@H]1NC(=O)[C@@H](CCC(=O)O)NC(=O)[C@@H](CC(=O)O)NC(=O)[C@@H](CCC(=O)O)NC(=O)[C@H](Cc2c[nH]c3ccccc23)NC1=O (cyclo(W[dE][dD][dE][dR])) ?
no (0)

Would you mind telling me which call this test gave CCOC(=O)Cn1c(=O)[nH]c(=O)c2c1ncn2Cc1ccccc1 ?
no (0)

Would you mind telling me which call this test gave CCc1ccccc1NC(=O)c1cccc([N+](=O)[O-])c1O ?
no (0)

Would you mind telling me which call this test gave COc1ccc(CCCNC(=O)Cc2ccccc2CO)cc1OC ?
no (0)

Would you mind telling me which call this test gave Cc1cc(S(=O)(=O)N2CCNNC2=O)c(S)cc1Cl ?
no (0)

* * *

system: MOLT-4; experiment: NCI tumour cell line growth inhibition, 48 h
The source made the active and inactive calls. Cut-off read from the data, not from the text of the source: active = GI50 up to about 1.1 µM and inactive = higher.
Can you answer with just one of these options? 1 (yes) = active, 0 (no) = inactive

Would you mind telling me which call this test gave N=C(N)NS(=O)(=O)c1ccc(NC(=O)c2ccc3nc4ccccc4c(Nc4ccc(S(=O)(=O)N=C(N)N)cc4)c3c2)cc1 ?
0 (no)

Would you mind telling me which call this test gave C=C1[C@@H](C)[C@H]2[C@H](Cc3ccccc3)NC(=O)[C@]23OC(=O)/C=C/[C@H](O)CCC[C@@H](C)C/C=C/[C@H]3[C@@H]1O ?
0 (no)

Would you mind telling me which call this test gave Cn1cnc(N2CCCC2)c(C#N)c1=S ?
0 (no)

Would you mind telling me which call this test gave CSc1[nH]nc(N)c1C(=O)Nc1ccccc1 ?
0 (no)

Would you mind telling me which call this test gave Cc1nc(-c2cccnc2)sc1C(=O)/C=C/c1cccc([N+](=O)[O-])c1 ?
0 (no)

Would you mind telling me which call this test gave COC(=O)C1C(C(=O)OC)C2C(=O)C3C(C(=O)OC)C(C(=O)OC)C3C(=O)C12 (stereo not given) ?
0 (no)

Would you mind telling me which call this test gave COc1ccc(C2C(C(=O)O)=C(CO)Oc3cc4c(cc32)OCO4)c(OC)c1 (stereo not given) ?
0 (no)

Would you mind telling me which call this test gave C/C=N\N1C(=O)c2ccccc2C1=O ?
0 (no)

Would you mind telling me which call this test gave O=C1CC(c2ccsc2)n2cccc21 (stereo not given) ?
0 (no)

Would you mind telling me which call this test gave NC(=O)c1c[se]c(C2OC(CO)C(O)C2O)n1 (stereo not given) ?
1 (yes)

Would you mind telling me which call this test gave Nc1ccc(-c2ncc3cc(-c4cccc(-c5cc6cnc(-c7ccc(N)cc7)nc6c6ccccc56)c4)c4ccccc4c3n2)cc1 ?
0 (no)

Would you mind telling me which call this test gave CNN1C(=O)c2c(N)c(C#N)c(-c3ccccc3)c(-c3ccccc3)c2C1=O ?
0 (no)

Would you mind telling me which call this test gave Cc1cccc(-c2cc(=O)c3cc(C)c(C)c(C(=O)O)c3o2)c1 ?
0 (no)

Would you mind telling me which call this test gave C=C1C(OC)=C(OC)C(=O)c2[nH]c3c(OC)cc([N+](=O)[O-])cc3c21 ?
0 (no)

Would you mind telling me which call this test gave O=S1(=O)c2ccccc2N2C(c3ccccc3)=NOC2(c2ccccc2)CC1c1ccc(Br)cc1 (stereo not given) ?
0 (no)

Would you mind telling me which call this test gave CCOC(=O)C1=C(C)C(C(=O)OC)/C(=C/c2cccc3cccnc23)C1=O (stereo not given) ?
0 (no)

Would you mind telling me which call this test gave COC(=O)CN(CC(=O)NCCNC(=O)OC(C)(C)C)C1CCCCC1N(CC(=O)OC)CC(=O)OC (stereo not given) ?
0 (no)

Would you mind telling me which call this test gave C=CCC1C2CCC(O[Si](C(C)C)(C(C)C)C(C)C)(C(C(=O)OC)C2)C1O (stereo not given) ?
0 (no)

Would you mind telling me which call this test gave CCCC(=O)Oc1cc(OC(=O)CCC)c2c(C)cc(=O)oc2c1 ?
0 (no)

Would you mind telling me which call this test gave C=CCN1C(=O)/C(=C/c2ccc(C)cc2)N=C1SC/C=C/C ?
0 (no)
